# Test target: T1, Human CD137 ECD (human)
# T1 construct: entry includes C-terminal His-tag and biotin acceptor peptide; also called human CD137 extracellular domain; 4-1BB
# T1 sequence (chain, as listed by the source limits assumed): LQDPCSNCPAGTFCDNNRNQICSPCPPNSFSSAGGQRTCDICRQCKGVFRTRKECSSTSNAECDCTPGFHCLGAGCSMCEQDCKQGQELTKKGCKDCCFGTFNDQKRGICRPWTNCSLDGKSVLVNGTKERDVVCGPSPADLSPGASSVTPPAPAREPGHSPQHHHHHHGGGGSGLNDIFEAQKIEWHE
# Test name: Biacore SPR, vs parent H183/L072

# Binder, fold change of affinity [fold]
data = [
    ("H183/L072 VL F96H (antibody, name in Kabat numbering, V domains shown, Dual-Ig) VH: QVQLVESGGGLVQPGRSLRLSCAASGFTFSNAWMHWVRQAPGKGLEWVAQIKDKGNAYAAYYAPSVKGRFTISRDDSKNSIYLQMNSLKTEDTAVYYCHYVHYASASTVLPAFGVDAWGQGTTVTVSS VL: DIVMTQSPLSLPVTPGEPASISCQASQELVHMNRNTYLHWYQQKPGQAPRLLIYKVSNRFPGVPDRFSGSGSGTDFTLKISRVEAEDVGVYYCAQGTSVPHTFGQGTKLEIK", 0),
    ("H183/L072 VL Q27H (antibody, name in Kabat numbering, V domains shown, Dual-Ig) VH: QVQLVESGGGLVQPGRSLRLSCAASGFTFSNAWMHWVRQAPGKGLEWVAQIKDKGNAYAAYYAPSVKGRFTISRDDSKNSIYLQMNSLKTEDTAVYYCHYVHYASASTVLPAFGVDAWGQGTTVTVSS VL: DIVMTQSPLSLPVTPGEPASISCQASHELVHMNRNTYLHWYQQKPGQAPRLLIYKVSNRFPGVPDRFSGSGSGTDFTLKISRVEAEDVGVYYCAQGTSVPFTFGQGTKLEIK", 0.9),
]
